Read-out: MicroRNA 122 (MIR122), gene 406906
METHOD NOTES: LTEA_HepaRG_MIR122: Life Technologies and Expression Analysis (LTEA) Assay for MicroRNA 122 (MIR122) using HepaRG (AID 2283516)
CONDITION: mRNA level, 48 h; actives raise or lower the signal
Calls of active or inactive are those of the source. The calls were made as follows: active = hit-call score of the fitted dose curve at least 0.9, where 1 is the maximum; inactive = score below 0.9.
Bench note: report the call from class 1 = active, class 0 = inactive

MOLECULE | ASSIGNED LABEL
O=C(O)COc1ccc(Cl)cc1Cl | class 0
O=[N+]([O-])c1c(Cl)c(Cl)c(Cl)c(Cl)c1Cl | class 0
CCC(C)Nc1c([N+](=O)[O-])cc(C(C)(C)C)cc1[N+](=O)[O-] (stereo not given) | class 0

-- ask Outcome? O=C(NC(=O)c1c(F)cccc1F)Nc1ccc(OC(F)(F)C(F)OC(F)(F)F)c(Cl)c1 (stereo not given)
-- reply class 0

-- ask Which result was noted for this molecule in the test: "C[C@H]1[C@H](c2ccc(Cl)cc2)SC(=O)N1C(=O)NC1CCCCC1"
-- reply class 1

-- ask Returns: the outcome recorded for "Cc1[nH]c(=O)n(C(C)(C)C)c(=O)c1Cl" in this assay.
-- reply class 0

-- ask What call does the record list for "O=C(O)C(F)(F)C(F)(F)C(F)(F)C(F)(F)C(F)(F)C(F)(F)C(F)(F)F" ?
-- reply class 0

-- ask Short answer needed: outcome of this test for "N#CN" ?
-- reply class 0

-- ask Assay result, entry CC1(c2ccc(Oc3ccccc3)cc2)OC(=O)N(Nc2ccccc2)C1=O (stereo not given) — outcome?
-- reply class 1

-- ask Any idea what this test logged for CC[C@H](C)[C@H]1O[C@]2(C=C[C@@H]1C)C[C@@H]1C[C@@H](C/C=C(\C)[C@@H](O[C@H]3C[C@H](OC)[C@@H](O[C@H]4C[C@H](OC)[C@@H](O)[C@H](C)O4)[C@H](C)O3)[C@@H](C)/C=C/C=C3\CO[C@@H]4[C@H](O)C(C)=C[C@@H](C(=O)O1)[C@]34O)O2 (tested in a mixture with another compound) ?
-- reply class 1
